- MEASURED TARGET: baNadD (Bacillus anthracis, UniProt C3L5T6)
- Sequence (C3L5T6 whole entry, looked up): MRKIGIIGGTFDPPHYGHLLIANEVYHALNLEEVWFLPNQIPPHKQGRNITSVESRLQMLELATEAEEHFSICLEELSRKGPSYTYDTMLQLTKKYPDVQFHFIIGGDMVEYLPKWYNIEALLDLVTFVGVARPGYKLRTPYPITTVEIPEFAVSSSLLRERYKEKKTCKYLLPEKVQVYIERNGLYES
- MEASUREMENT NOTES: biochemical
- Assay type: biochemical
Measured […]. anthracis values are reported for all entries that follow.

| SMILES TEXT | MEASURED TARGET | […]. anthracis (%) |
| --- | --- | --- |
| O=C(CSc1ncnc2ccccc12)Nc1ccc2nsnc2c1 | baNadD (Bacillus anthracis, UniProt C3L5T6) | 28 |
| Nc1nonc1C(=O)N/N=C/c1cc(Br)cc(Br)c1O | baNadD (Bacillus anthracis, UniProt C3L5T6) | 20 |
| O=C(Cn1cnc2ccccc2c1=O)Nc1cccc(C(=O)O)c1 | baNadD (Bacillus anthracis, UniProt C3L5T6) | 0 |
| O=C(O)CCC(=O)Nc1ccc(-c2nnc(-c3ccco3)o2)cc1 | baNadD (Bacillus anthracis, UniProt C3L5T6) | 11 |
| O=c1/c(=C/c2ccc(O)cc2)sc2nc3cc(Br)cnc3n12 | baNadD (Bacillus anthracis, UniProt C3L5T6) | 6 |
| O=C(COc1ccc(Cl)cc1)N/N=C/c1cccs1 | baNadD (Bacillus anthracis, UniProt C3L5T6) | 24 |
| COc1ccc(-c2csc(N)n2)cc1[N+](=O)[O-] | baNadD (Bacillus anthracis, UniProt C3L5T6) | 54 |
| Nc1nc(-c2cccc(Br)c2)cs1 | baNadD (Bacillus anthracis, UniProt C3L5T6) | 12 |
| O=C(O)/C=C/c1ccncc1 | baNadD (Bacillus anthracis, UniProt C3L5T6) | 4 |
| C=CCSc1nnc(-c2cc(Br)ccc2N)c(O)n1 | baNadD (Bacillus anthracis, UniProt C3L5T6) | 0 |

Values were extracted from patent US8785499B2.
